B1: glmS ribozyme (parent)
chain: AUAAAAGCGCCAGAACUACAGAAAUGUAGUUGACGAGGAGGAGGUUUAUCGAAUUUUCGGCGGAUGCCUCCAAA

# Variants of: B1
# Test: self-cleavage kobs at 160 uM GlcN6P; higher = faster cleavage; RNA array
# Measurement Parameters: with glucosamine-6-phosphate
Fewer inactive variants are shown than the library holds.
Endpoint Name: self-cleavage kobs at 160 uM GlcN6P

- A15C C70U: 0.000389 s⁻¹

**Query** Name the reported self-cleavage kobs at 160 uM GlcN6P value associated with the variant G7A A36C
**Result** < 1e-05 s⁻¹

**Query** Name the reported self-cleavage kobs at 160 uM GlcN6P value associated with the variant G32U A33C
**Result** < 1e-05 s⁻¹

**Query** Name the reported self-cleavage kobs at 160 uM GlcN6P value associated with the variant G9C A48G
**Result** < 1e-05 s⁻¹

**Query** Name the reported self-cleavage kobs at 160 uM GlcN6P value associated with the variant A14C G43U
**Result** < 1e-05 s⁻¹
